Tested on: HT29 colon
measurement-description: NCI-60 one-dose screen, 48 h (100 = growth as untreated, 0 = no growth, -100 = all killed)
condition: 10 µM unless noted
Compounds without any hit were thinned out: in the full panel of roughly 83,000, 20% have a hit.
test-readout: growth (%)
Write down the numeric answer in % and omit the unit.

[[record]]
molecule = "COc1cc(/C=C2\\COc3ccc(O)c(O)c3C2=O)cc(OC)c1"
test_readout = "growth"
recorded_value = 3.57

[[record]]
molecule = "Cc1cc(C)n(C(=O)c2nn(-c3ccc(Cl)cc3)cc2O)n1"
test_readout = "growth"
recorded_value = 97.7


Hey, HT29 colon data for Nc1ncc(-c2cnn(C3CCNCC3)c2)cc1-c1nc2cc(Cl)ccc2o1 : growth came out at -100

Hey, HT29 colon data for Cc1cc(CC(=O)O)n(C)c1C(=O)c1ccc(Cl)cc1 : growth came out at 109

Hey, HT29 colon data for COc1cc2c(c(OC)c1OC)CCc1cnoc1-2 : growth came out at 99.4

Hey, HT29 colon data for CCCCCCCC/C=C/CCCCCCCC1=NC(C)(C)CN1CC(C)O (stereo not given) : growth came out at -64.8
